TARGET ENTITY: GABARAPL2 (Homo sapiens, UniProt P60520)
Sequence (P60520 whole entry): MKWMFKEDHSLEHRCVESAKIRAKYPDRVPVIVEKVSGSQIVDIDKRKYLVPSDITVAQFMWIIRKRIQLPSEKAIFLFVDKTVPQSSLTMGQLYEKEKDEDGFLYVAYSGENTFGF
SETUP CONDITIONS: residue R28; GABARAPL2:ligand molar ratio 1:2
Measured CSP by item
METRIC: CSP (ppm)

> print(dat)
                                   compound                             target.entity  numeric.value
1  Cc1ccc(C(=O)N(CCCN)[C@@H](c2nc3cc(Cl)ccc3c(=O)n2Cc2ccccc2)C(C)C)cc1  GABARAPL2 (Homo sapiens, UniProt P60520)        0.00232
2   O=C1Nc2ccc(Br)cc2C1=Cc1cc(O)c(O)c(Br)c1  GABARAPL2 (Homo sapiens, UniProt P60520)          0.016
3   O=C1Nc2ccc(I)cc2C1=Cc1cc(Br)c(O)c(Br)c1  GABARAPL2 (Homo sapiens, UniProt P60520)          0.064
4         O=c1cc(-c2ccccc2)c2c(O)cc(O)cc2o1  GABARAPL2 (Homo sapiens, UniProt P60520)        0.00851
